All figures here come from patent US12642768B2.

Measured Particle size dispersity (PDI) accompanies every entry in the list below.
Test: Particle size and PDI of lipid nanoparticles by dynamic light scattering
Assay type: physicochemical
Experimental setup: LNP 50:38.5:10:1.5, N/P 6, luciferase mRNA
Kindly provide the number alone.

Solved cases below.
Compound: CC(C)CCCCCCCOC(=O)CCC(C)(C)CCCC(CCCC(C)(C)CCC(=O)OCCCCCCCC(C)C)OC(=O)CCCN(C)C [Compound 127]
Particle size dispersity (PDI): 0.05

Compound: CCCCCCCCCOC(=O)C(C)(C)CCCCCC(CCCCCC(C)(C)C(=O)OCCCCCCCCC)OC(=O)C1CCN(C(C)C)CC1 [Compound 103]
Particle size dispersity (PDI): 0.04

Compound: CCCCCCCCCOC(=O)C(C)(C)CCCCC(CCCCC(C)(C)C(=O)OCC(CCCCC)CCCCCCC)OC(=O)CCCN(C)C (stereo not shown) [Compound 122]
Particle size dispersity (PDI): 0.07

Compound: CCCCCCCCCCOC(=O)C(C)(C)CCCCC(CCCCC(C)(C)C(=O)OCC(CCCCC)CCCCCCC)OC(=O)CCCN(C)C (stereo not shown) [Compound 123]
Particle size dispersity (PDI): 0.05

Compound: CCCCCCCCCOC(=O)CCCCCCC(CCCCCCC(=O)OCC(CCCCC)CCCCCCC)OC(=O)CCCN(C)C (stereo not shown) [D2, reference compound]
Particle size dispersity (PDI): 0.20

Asked: // query Particle size dispersity (PDI) value for entry CCCCCCCCCCOC(=O)C(C)(C)CCCCCC(CCCCCC(C)(C)C(=O)OCCCCCCCCCC)OC(=O)C1CCN(C)CC1 [Compound 99]
Given back: 0.05

Asked: // query Particle size dispersity (PDI) value for entry CCCCCCCCCOC(=O)CC(C)(C)CCCCC(CCCCC(C)(C)CC(=O)OCCCCCCCCC)OC(=O)CCCN(C)C [Compound 97]
Given back: 0.25

Asked: // query Particle size dispersity (PDI) value for entry CCCCCCCCCSC(=O)C(C)(C)CCCCCC(CCCCCC(C)(C)C(=O)SCCCCCCCCC)OC(=O)CC1CCN(CCO)CC1 [Compound 110]
Given back: 0.01

###

Test: Particle size and PDI of lipid nanoparticles by dynamic light scattering
Assay type: physicochemical
Experimental setup: LNP 50:38.5:10:1.5, N/P 6, luciferase mRNA
Measured Particle size dispersity (PDI) accompanies every entry in the list below.

Solved cases below.
Compound: CCCCCCCCCSC(=O)C(C)(C)CCCCCC(CCCCCC(C)(C)C(=O)SCCCCCCCCC)OC(=O)CC1CCN(C)CC1
Particle size dispersity (PDI): 0.05

Compound: CCCCCCCCCOC(=O)C(C)(C)CCCCCC(CCCCCC(C)(C)C(=O)OCC#CC(CCCCCC)CCCCCC)OC(=O)CCCN(C)C (stereo not shown)
Particle size dispersity (PDI): 0.07

Asked: // query Particle size dispersity (PDI) value for entry "CCCCCCCCCCSC(=O)C(C)(C)CCCCCC(CCCCCC(C)(C)C(=O)SCCCCCCCCCC)OC(=O)C1CCN(C(C)C)CC1"
Given back: 0.05

Asked: // query Particle size dispersity (PDI) value for entry CCCCCCC#CCOC(=O)C(C)(C)CCCCCC(CCCCCC(C)(C)C(=O)OCCCCCCCCC)OC(=O)CCCN(C)C (stereo not shown)
Given back: 0.07

###

Test: Particle size and PDI of lipid nanoparticles by dynamic light scattering
Assay type: physicochemical
Experimental setup: LNP 50:38.5:10:1.5, N/P 6, luciferase mRNA
Experimental endpoint: Particle size dispersity (PDI)
Kindly provide the number alone.

Solved cases below.
Compound: CCCCCCC(CCCCCC)CCOC(=O)CCC(C)(C)CCCC(CCCC(C)(C)CCC(=O)OCCC(CCCCCC)CCCCCC)OC(=O)CCCN(C)C [Compound 128]
Particle size dispersity (PDI): 0.05
//
Compound: CCCCCCCCCCOC(=O)C(C)(C)CCCCCC(CCCCCC(C)(C)C(=O)OCCCCCCCCCC)OC(=O)CCN1CCOCC1 [Compound 90]
Particle size dispersity (PDI): 0.05
//
Compound: CCCCCCCCCOC(=O)C(C)(C)CCCCCCC(CCCCCCC(C)(C)C(=O)OCC(CCCCC)CCCCCCC)OC(=O)CCCCN(C)C (stereo not drawn) [Compound 126]
Particle size dispersity (PDI): 0.06
//
Compound: CCCCCCCCCSC(=O)C(C)(C)CCCCCC(CCCCCC(C)(C)C(=O)SCCCCCCCCC)OC(=O)C1CCN(C)CC1 [Compound 106]
Particle size dispersity (PDI): 0.05
//
Compound: CCCCCCCCCCSC(=O)C(C)(C)CCCCCC(CCCCCC(C)(C)C(=O)OCCCCCCCCC)OC(=O)CCCN(C)C (stereo not drawn) [Compound 40]
Particle size dispersity (PDI): 0.05

Asked: // query Particle size dispersity (PDI) value for entry CCCCCCCCCOC(=O)C(C)(C)CCCCCC(CCCCCC(C)(C)C(=O)OCC(CCCCC)CCCCCCC)OC(=O)CC1CCN(C)CC1 (stereo not drawn) [Compound 111]
Given back: 0.06

###

Test: Particle size and PDI of lipid nanoparticles by dynamic light scattering
Format: physicochemical
Experimental setup: LNP 50:38.5:10:1.5, N/P 6, luciferase mRNA
Experimental endpoint: Particle size dispersity (PDI)
Kindly provide the number alone.

Asked: // query Particle size dispersity (PDI) value for entry CCCCCCC/C=C\COC(=O)CC(C)(C)CCCCC(CCCCC(C)(C)CC(=O)OCC(CCCCC)CCCCCCC)OC(=O)CCCN(C)C (centres unmarked) [Compound 98]
Given back: 0.13

Asked: // query Particle size dispersity (PDI) value for entry CCCCCCCCCOC(=O)C(C)(C)CCCCCC(CCCCCC(C)(C)C(=O)OCCCCCCCCC)OC(=O)CC1CCN(CCO)CC1 [Compound 113]
Given back: 0.03

Asked: // query Particle size dispersity (PDI) value for entry CCCCCCCCCSC(=O)C(C)(C)CCCCCC(CCCCCC(C)(C)C(=O)SCCCCCCCCC)OC(=O)CC1CCN(CC)CC1 [Compound 109]
Given back: 0.06

Asked: // query Particle size dispersity (PDI) value for entry CCCCCCCCCOC(=O)C(C)(C)CCCCCC(CCCCCC(C)(C)C(=O)OCCCCCCCCC)OC(=O)C1CCN(C)CC1 [Compound 102]
Given back: 0.03

Asked: // query Particle size dispersity (PDI) value for entry CCCCCCCCOC(=O)C(C)(C)CCCCCC(CCCCCC(C)(C)C(=O)OCCCCCCCC)OC(=O)C1CCN(C(C)C)CC1 [Compound 101]
Given back: 0.06
